assay: Metabolic stability in simulated intestinal fluid (SIF), pH 6.8, with or without pancreatin; type: in vitro ADME; settings: +Pancreatin (1%), 5 μM, 37° C., 120 min
quantity: SIF Stability (pH 6.8) 120 min (%)
Number only, in %; omit the unit.

The following molecules have reported results that may help.
CCCCCC(=O)NC(Cc1ccc(OC(=O)NCCN(C)C)cc1)C(=O)NC(C(=O)NCCCCCC(N)=O)C(C)CC (stereo not drawn) [Compound A21] | 97
CCCCCC(=O)N1C(Cc2ccc(OP(=O)([O-])[O-])cc2)C(=O)N(C(C(=O)NCCCCCC(N)=O)C(C)CC)C12CCN(C)CC2.[Na+].[Na+] (stereo not drawn) [Compound 2] | 51

Moving on to the next molecule.
Find the recorded SIF Stability (pH 6.8) 120 min belonging to CCCCCC(=O)NC(Cc1ccc(OP(=O)(OCCN(C)C)OCCN(C)C)cc1)C(=O)NC(C(=O)NCCCCCC(N)=O)C(C)CC (stereo not drawn) [Compound A18] and report it.
12
